- procedure_text: physchem
- test_settings: 30% CH3CN/phosphate buffer, pH 7.4
- Description: Half life in pH 7.4 30%CH3CN/phosphate buffer at 50 mM by RP-UPLC analysis
Please note: half-life at 50000 µM exactly at 100 h is rule not met. Only values below 100 h get rule met.

See these solved cases before continuing.
COC(=O)N[C@H](C(=O)N[C@@H](Cc1ccccc1)[C@H](CN(Cc1ccc(-c2ccccn2)cc1)NC(=O)[C@@H](NC(=O)OC)C(C)(C)C)OC(=O)CN(C)C)C(C)(C)C; rule not met
COC(=O)N[C@H](C(=O)N[C@@H](Cc1ccccc1)[C@H](CN(Cc1ccc(-c2ccccn2)cc1)NC(=O)[C@@H](NC(=O)OC)C(C)(C)C)OC(=O)[C@@H](N)Cc1c[nH]c2ccccc12)C(C)(C)C; rule not met
COC(=O)N[C@H](C(=O)N[C@@H](Cc1ccccc1)[C@H](CN(Cc1ccc(-c2ccccn2)cc1)NC(=O)[C@@H](NC(=O)OC)C(C)(C)C)OC(=O)[C@@H](N)CCSC)C(C)(C)C; rule not met
COC(=O)N[C@H](C(=O)N[C@@H](Cc1ccccc1)[C@H](CN(Cc1ccc(-c2ccccn2)cc1)NC(=O)[C@@H](NC(=O)OC)C(C)(C)C)OC(=O)[C@@H](N)Cc1ccc(F)cc1)C(C)(C)C; rule not met
COC(=O)N[C@H](C(=O)N[C@@H](Cc1ccccc1)[C@H](CN(Cc1ccc(-c2ccccn2)cc1)NC(=O)[C@@H](NC(=O)OC)C(C)(C)C)OC(=O)[C@@H](N)Cc1ccc(O)cc1)C(C)(C)C; rule not met

Consider the compound `COC(=O)N[C@H](C(=O)N[C@@H](Cc1ccccc1)[C@H](CN(Cc1ccc(-c2ccccn2)cc1)NC(=O)[C@@H](NC(=O)OC)C(C)(C)C)OC(=O)CN)C(C)(C)C` . Is its half-life at 50000 µM strictly less than 100 h?
rule met

* * *

- tested_system: Protease (Human immunodeficiency virus 1)
- Sequence (Q9YQ12 whole entry): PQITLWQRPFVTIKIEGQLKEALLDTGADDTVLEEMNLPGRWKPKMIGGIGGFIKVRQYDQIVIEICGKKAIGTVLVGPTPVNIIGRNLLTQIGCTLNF
Entries and their IC50

Below are worked cases with known answers.
COC(=O)N[C@H](C(=O)N[C@@H](Cc1ccccc1)[C@H](CN(Cc1ccc(-c2ccccn2)cc1)NC(=O)[C@@H](NC(=O)OC)C(C)(C)C)OC(=O)[C@@H](NC(=O)[C@@H](N)C(C)C)C(C)C)C(C)(C)C; 4 to 1140 nM
COC(=O)N[C@H](C(=O)N[C@@H](Cc1ccccc1)[C@H](CN(Cc1ccc(-c2ccccn2)cc1)NC(=O)[C@@H](NC(=O)OC)C(C)(C)C)OC(=O)[C@@H](N)Cc1ccccc1)C(C)(C)C; 4 to 1140 nM
COC(=O)N[C@H](C(=O)N[C@@H](Cc1ccccc1)[C@@H](O)CN(Cc1ccc(-c2ccccn2)cc1)NC(=O)[C@@H](NC(=O)OC)C(C)(C)C)C(C)(C)C; 0.3 nM

Tell me its IC50 on Protease (Human immunodeficiency virus 1): `COC(=O)N[C@H](C(=O)N[C@@H](Cc1ccccc1)[C@H](CN(Cc1ccc(-c2ccccn2)cc1)NC(=O)[C@@H](NC(=O)OC)C(C)(C)C)OC(=O)CN(C)C)C(C)(C)C`
4 to 1140 nM

Report value: IC50, system: Protease (Human immunodeficiency virus 1), molecule: `COC(=O)N[C@H](C(=O)N[C@@H](Cc1ccccc1)[C@H](CN(Cc1ccc(-c2ccccn2)cc1)NC(=O)[C@@H](NC(=O)OC)C(C)(C)C)OC(=O)[C@H](C)N)C(C)(C)C`
4 to 1140 nM

* * *

Examples of compounds with documented Tmax follow.
- test_settings: rat, in vivo, po, 3 mg/kg
The figure you give is taken to be in min; do not add the unit.

Supply recorded Tmax for `COC(=O)N[C@H](C(=O)N[C@@H](Cc1ccccc1)[C@H](CN(Cc1ccc(-c2ccccn2)cc1)NC(=O)[C@@H](NC(=O)OC)C(C)(C)C)OC(=O)[C@H](NC(=O)[C@H](N)C(C)C)C(C)C)C(C)(C)C` here.
60

Report Tmax, nothing else, for this compound: `COC(=O)N[C@H](C(=O)N[C@@H](Cc1ccccc1)[C@H](CN(Cc1ccc(-c2ccccn2)cc1)NC(=O)[C@@H](NC(=O)OC)C(C)(C)C)OC(=O)[C@@H](N)Cc1ccc(O)cc1)C(C)(C)C`
24

Tell me measured Tmax for `COC(=O)N[C@H](C(=O)N[C@@H](Cc1ccccc1)[C@H](CN(Cc1ccc(-c2ccccn2)cc1)NC(=O)[C@@H](NC(=O)OC)C(C)(C)C)OC(=O)[C@@H](N)Cc1ccc(F)cc1)C(C)(C)C` please.
30

For `COC(=O)N[C@H](C(=O)N[C@@H](Cc1ccccc1)[C@H](CN(Cc1ccc(-c2ccccn2)cc1)NC(=O)[C@@H](NC(=O)OC)C(C)(C)C)OC(=O)[C@@H](N)Cc1c[nH]c2ccccc12)C(C)(C)C` , write its Tmax.
48

Respond only with Tmax recorded for `COC(=O)N[C@H](C(=O)N[C@@H](Cc1ccccc1)[C@H](CN(Cc1ccc(-c2ccccn2)cc1)NC(=O)[C@@H](NC(=O)OC)C(C)(C)C)OC(=O)CN(C)C(=O)[C@H](Cc1ccccc1)N(C)C)C(C)(C)C`
30

Specify reported Tmax for the compound shown: `COC(=O)N[C@H](C(=O)N[C@@H](Cc1ccccc1)[C@H](CN(Cc1ccc(-c2ccccn2)cc1)NC(=O)[C@@H](NC(=O)OC)C(C)(C)C)OC(=O)[C@H](N)Cc1ccccc1)C(C)(C)C`
30

Quick one: give measured Tmax for `COC(=O)N[C@H](C(=O)N[C@@H](Cc1ccccc1)[C@H](CN(Cc1ccc(-c2ccccn2)cc1)NC(=O)[C@@H](NC(=O)OC)C(C)(C)C)OC(=O)CN(C)C)C(C)(C)C`
18

Please give the documented Tmax of `COC(=O)N[C@H](C(=O)N[C@@H](Cc1ccccc1)[C@H](CN(Cc1ccc(-c2ccccn2)cc1)NC(=O)[C@@H](NC(=O)OC)C(C)(C)C)OC(=O)CNC(=O)[C@@H](N)Cc1ccccc1)C(C)(C)C`
24

Using the record for `COC(=O)N[C@H](C(=O)N[C@@H](Cc1ccccc1)[C@H](CN(Cc1ccc(-c2ccccn2)cc1)NC(=O)[C@@H](NC(=O)OC)C(C)(C)C)OC(=O)CN(C)C(=O)[C@@H](N)Cc1ccccc1)C(C)(C)C.Cl.Cl` , state its measured Tmax.
60

Tell me its Tmax given `COC(=O)N[C@H](C(=O)N[C@@H](Cc1ccccc1)[C@H](CN(Cc1ccc(-c2ccccn2)cc1)NC(=O)[C@@H](NC(=O)OC)C(C)(C)C)OCOP(=O)([O-])[O-])C(C)(C)C.[Na+].[Na+]` as the entry.
15

* * *

- procedure_text: physchem
- test_settings: 30% CH3CN/HCl buffer, pH 1
- Description: Half life in pH 1 30%CH3CN/HCl buffer at 50 mM by RP-UPLC analysis
measure: half-life at 50000 µM

Reference set, count: 5
COC(=O)N[C@H](C(=O)N[C@@H](Cc1ccccc1)[C@H](CN(Cc1ccc(-c2ccccn2)cc1)NC(=O)[C@@H](NC(=O)OC)C(C)(C)C)OC(=O)CN(C)C)C(C)(C)C; > 20.8 days
COC(=O)N[C@H](C(=O)N[C@@H](Cc1ccccc1)[C@H](CN(Cc1ccc(-c2ccccn2)cc1)NC(=O)[C@@H](NC(=O)OC)C(C)(C)C)OCOP(=O)([O-])[O-])C(C)(C)C.[Na+].[Na+]; 0.00833 days
CN[C@@H](Cc1ccccc1)C(=O)N(C)CC(=O)O[C@@H](CN(Cc1ccc(-c2ccccn2)cc1)NC(=O)[C@@H](NC(=O)OC)C(C)(C)C)[C@H](Cc1ccccc1)NC(=O)[C@@H](NC(=O)OC)C(C)(C)C; 15.7 days
COC(=O)N[C@H](C(=O)N[C@@H](Cc1ccccc1)[C@H](CN(Cc1ccc(-c2ccccn2)cc1)NC(=O)[C@@H](NC(=O)OC)C(C)(C)C)OC(=O)[C@H](N)Cc1ccccc1)C(C)(C)C; > 20.8 days
COC(=O)N[C@H](C(=O)N[C@@H](Cc1ccccc1)[C@H](CN(Cc1ccc(-c2ccccn2)cc1)NC(=O)[C@@H](NC(=O)OC)C(C)(C)C)OC(=O)[C@@H](NC(=O)[C@@H](N)C(C)C)C(C)C)C(C)(C)C; > 20.8 days

Indicate the recorded half-life at 50000 µM value for this molecule: `COC(=O)N[C@H](C(=O)N[C@@H](Cc1ccccc1)[C@H](CN(Cc1ccc(-c2ccccn2)cc1)NC(=O)[C@@H](NC(=O)OC)C(C)(C)C)OC(=O)[C@H](NC(=O)[C@@H](N)C(C)C)C(C)C)C(C)(C)C`
> 20.8 days

Entry `COC(=O)N[C@H](C(=O)N[C@@H](Cc1ccccc1)[C@H](CN(Cc1ccc(-c2ccccn2)cc1)NC(=O)[C@@H](NC(=O)OC)C(C)(C)C)OC(=O)[C@@H](N)CCSC)C(C)(C)C` needs its half-life at 50000 µM filled in; supply it.
> 20.8 days

In one line, give reported half-life at 50000 µM of the entry `COC(=O)N[C@H](C(=O)N[C@@H](Cc1ccccc1)[C@H](CN(Cc1ccc(-c2ccccn2)cc1)NC(=O)[C@@H](NC(=O)OC)C(C)(C)C)OC(=O)[C@@H](C)N)C(C)(C)C` .
> 20.8 days

Look up and state reported half-life at 50000 µM for `COC(=O)N[C@H](C(=O)N[C@@H](Cc1ccccc1)[C@H](CN(Cc1ccc(-c2ccccn2)cc1)NC(=O)[C@@H](NC(=O)OC)C(C)(C)C)OC(=O)CNC(=O)[C@H](N)Cc1ccccc1)C(C)(C)C`
> 20.8 days

Please indicate half-life at 50000 µM recorded for `COC(=O)N[C@H](C(=O)N[C@@H](Cc1ccccc1)[C@H](CN(Cc1ccc(-c2ccccn2)cc1)NC(=O)[C@@H](NC(=O)OC)C(C)(C)C)OC(=O)[C@H](NC(=O)[C@H](N)C(C)C)C(C)C)C(C)(C)C`
> 20.8 days
